Values compiled from patent US20220184177A1.

Target: T1, Estrogen Receptor α (UniProt P03372 1-595, limits assumed)
T1 construct: also called ERα; ERa
T1 sequence (looked up): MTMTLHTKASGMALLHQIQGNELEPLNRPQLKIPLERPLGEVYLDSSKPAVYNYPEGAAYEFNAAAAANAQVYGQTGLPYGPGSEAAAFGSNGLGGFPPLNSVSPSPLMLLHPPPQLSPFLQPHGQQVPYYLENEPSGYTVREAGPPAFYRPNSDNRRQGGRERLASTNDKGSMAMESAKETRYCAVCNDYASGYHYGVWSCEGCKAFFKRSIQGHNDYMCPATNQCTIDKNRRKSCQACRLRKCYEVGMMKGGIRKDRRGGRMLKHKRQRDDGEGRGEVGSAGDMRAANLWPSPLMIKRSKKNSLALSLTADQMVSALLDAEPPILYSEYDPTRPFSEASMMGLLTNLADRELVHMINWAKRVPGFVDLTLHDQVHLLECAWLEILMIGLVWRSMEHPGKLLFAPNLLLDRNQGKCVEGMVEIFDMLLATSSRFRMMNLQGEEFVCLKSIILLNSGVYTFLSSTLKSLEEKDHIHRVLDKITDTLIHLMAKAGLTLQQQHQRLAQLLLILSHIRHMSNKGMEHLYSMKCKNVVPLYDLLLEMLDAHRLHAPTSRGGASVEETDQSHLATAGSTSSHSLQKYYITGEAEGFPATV
Assay: binding kinetics on ERα (method not described, presumably BLI)
Where no end group is shown, it is not given here. The star is where a group is joined. Biotin = O=C1N[C@H]2[C@H](CS[C@H]2CCCCC(=O)*)N1
Measured Kd accompanies every entry in the list below.
Quick reminder: number only, in nM, skip the unit.

binder	numeric-value
Biotin-RLQLMARLAEGTGLQIPPAAQQALQMSGSLAFGAVADLQTRLSQQ (Custom synthesized (LifeTein), crude purity, N-terminal biotin; A TAT control peptide was run alongside, so the TAT form is possible) [CAPER peptide HCC1.3 (amino acid residues 356-400)]	4.5

Kindly review the next binder as well.
Using the record for Biotin-RLQLMARLAEGTGLQIPPAAQQALQMSGSLAFGAVAEFSFVIDLQ (Custom synthesized (LifeTein), crude purity, N-terminal biotin) [CAPER peptide HCC1.4 (amino acid residues 356-400)] , state its measured Kd.
30.2
